# System: MDA-MB-231 breast
# ASSAY EXPLANATION: NCI-60 one-dose screen, 48 h (100 = growth as untreated, 0 = no growth, -100 = all killed)
# RUN PARAMETERS: 10 µM unless noted
The panel holds about 83,000 compounds, 20% with a hit somewhere; the sample as a whole holds those more often. The source made the active and inactive calls. Rule for the calls: active = growth percent below 10; inactive = the rest.

COMPOUND	TARGET OR SYSTEM	growth
O=C(c1cccc(O)c1O)c1cn(Cc2ccc(F)cc2)c2cccc(O)c12	MDA-MB-231 breast	39.1% (inactive)
COc1cccc2c1c(C(=O)C(=O)Nc1cc(C)no1)cn2Cc1ccc(F)cc1	MDA-MB-231 breast	77.5% (inactive)
O=C(c1ccccc1O)c1[nH]c(Cl)c(Cl)c1-n1c(C(=O)c2ccccc2O)cc(Cl)c1Cl	MDA-MB-231 breast	-31.7% (active)
CN(CCCCN(C)CCOS(C)(=O)=O)CCOS(C)(=O)=O	MDA-MB-231 breast	79.7% (inactive)
O=C(CC1(O)C(=O)N(Cc2ccccc2)c2ccc(Br)cc21)c1ccc(C(=O)NCC2CCC3(CC2)OOC2(CCCCC2)OO3)cc1 (centres undefined)	MDA-MB-231 breast	-73.9% (active)
CC[C@H](NC(=O)[C@H]1CCCCN1C)C(=O)N(C)[C@H](C[C@@H](OC(C)=O)c1nc(C(=O)N[C@@H](Cc2ccccc2)C[C@H](C)C(=O)O)cs1)C(C)C	MDA-MB-231 breast	9.34% (active)
C=CC[n+]1ccc(-c2cc[n+](CC=C)cc2)cc1	MDA-MB-231 breast	120% (inactive)
COc1ccc(S(=O)(=O)N(Cc2ccc3c(c2)C=CC(C)(C)O3)c2ccccc2)cc1OC	MDA-MB-231 breast	96.6% (inactive)
CC(=O)[O][Hg][c]1c(N)c(C)cc(C)c1F	MDA-MB-231 breast	7.24% (active)

---

# Test system: HCT-15 colon
# ASSAY EXPLANATION: NCI-60 one-dose screen, 48 h (100 = growth as untreated, 0 = no growth, -100 = all killed)
# RUN PARAMETERS: 10 µM unless noted
About 83,000 compounds went through this panel and 20% of them were active in at least one assay; those are over-represented in the sample as a whole.
Quick list: growth per entry.

STRUCTURE	UNIT ABBREV	growth
O=C(CN1CCN(C(=O)c2ccco2)CC1)Nc1ccc(Cl)cc1C(=O)c1ccccc1Cl	%	81.9
COC(=O)[C@@H](C)C[C@H](Cc1ccccc1)NC(=O)c1csc([C@@H](C[C@H](C(C)C)N(C)C(=O)[C@H](C)NC(=O)[C@H]2CCCCN2C)OC(C)=O)n1	%	45.4
CCCC[C@H](NC(=O)[C@H]1CCCN1C)C(=O)N(C)[C@H](C[C@@H](OC(C)=O)c1nc(C(=O)N[C@@H](Cc2ccccc2)C[C@H](C)C(=O)OCC)cs1)C(C)C	%	19.1
CC1=C(CNO)C2=C(C)C3(CC3)[C@@](C)(O)C(=O)C2=C1	%	12.1

---

# Tested on: K-562 leukemia
# ASSAY EXPLANATION: NCI-60 one-dose screen, 48 h
# RUN PARAMETERS: 10 µM unless noted
About 83,000 compounds went through this panel and 20% of them were active in at least one assay; those are over-represented in the sample as a whole. Calls of active or inactive are those of the source. How the source made its calls: active means growth percent below 10; inactive means the rest.
Possible outcomes: YES (active), NO (inactive)

STRUCTURE	CLASS LABEL
C#C[C@]1(OC(=O)CCCCCC)CC[C@H]2[C@@H]3CCC4=CC(=O)CC[C@@H]4[C@H]3CC[C@@]21C	NO
Clc1cc(N2CC2)nc(N2CC2)n1	NO
CC(=O)c1ccc(C(=O)NCC2CCC3(CC2)OOC2(CCCCC2)OO3)cc1	NO
C=CC[Se]C(=O)c1ccccc1OC(C)=O	NO
N#C[Se]CCN1C(=O)c2ccccc2C1=O	NO
COC(=O)[C@@H](C)C[C@H](Cc1ccccc1)NC(=O)c1csc([C@@H](C[C@H](C(C)C)N(C)C(=O)[C@@H](NC(=O)[C@H]2CCCN2C)C2CC2)OC(C)=O)n1	YES
CC[CH2][Sn]([Cl])([Cl])[CH2]CC	NO
CC(=O)OCC1O[C@@H]([S-])C(OC(C)=O)[C@H](OC(C)=O)[C@@H]1OC(C)=O.[Au+].c1ccc(CN2[CH-]N(Cc3ccccc3)C(c3ccccc3)=C2c2ccccc2)cc1	YES
O=C(CN1CCN(C(=O)c2ccco2)CC1)Nc1ccc(Cl)cc1C(=O)c1ccccc1Cl	NO
COc1cccc(/C=C/[N+](=O)[O-])c1	YES
COc1cc(/C=C/[N+](=O)[O-])cc(OC)c1	YES
O=C1C(Cl)=C(N2CCOCC2)C(=O)c2ccccc21	YES
COc1cc2c(cc1OCCCCn1c(-c3cccs3)nc3ccccc31)N=C[C@@H]1CCCN1C2=O	YES
CCOC(=O)[C@@H](C)C[C@H](Cc1ccccc1)NC(=O)c1nc([C@@H](C[C@H](C(C)C)N(C)C(=O)[C@@H](NC(=O)[C@H]2CCCCN2C)C(C)C)OC(C)=O)sc1CCOCc1ccccc1	YES
CCCC[C@H](NC(=O)[C@H]1CCCCN1C)C(=O)N(C)[C@H](C[C@@H](OC(C)=O)c1nc(C(=O)N[C@@H](Cc2ccccc2)C[C@H](C)C(=O)OCC)cs1)C(C)C	YES
COC(=O)CCc1c[nH]c2ccc(N(CCCl)CCCl)cc12	NO
O=C(NCCN1CC1)C(=O)NCCN1CC1	NO
N/C(=N\N=C\c1ccc(-c2ccccc2)cc1)N[N+](=O)[O-]	NO
N/C(=N/N=C/c1ccncc1)N[N+](=O)[O-]	NO

---

# Test system: RXF 393 renal
# ASSAY EXPLANATION: NCI-60 one-dose screen, 48 h
# RUN PARAMETERS: 10 µM unless noted
The panel holds about 83,000 compounds, 20% with a hit somewhere; the sample as a whole holds those more often. Calls of active or inactive are those of the source. The calls were made as follows: active = growth percent below 10; inactive = the rest.
Classes used: label 1 = active, label 0 = inactive

COMPOUND	CLASS LABEL
C[CH2][Sn]([Cl])([Cl])[CH2]C.Oc1ccccc1C=NCCN=Cc1ccccc1O	label 0
C[C@]12C[C@@H](CO)[C@H](O)C[C@@H]1CC[C@@H]1[C@@H]2CC[C@]2(C)[C@@H](O)CC[C@@H]12	label 0
CC(=O)OC1CCC2C3CCC4=C/C(=N/OC(=O)c5ccc(N(CCCl)CCCl)cc5)CCC4(C)C3CC(C)C12 (stereo not drawn)	label 0
O=[N+]([O-])c1cc(I)cc([N+](=O)[O-])c1	label 0
COC(=O)[C@@H](C)C[C@H](Cc1ccccc1)NC(=O)c1csc([C@@H](C[C@H](C(C)C)N(C)C(=O)[C@@H](NC(=O)C23CC(NC(C)=O)(C2)C3)C2CC2)OC(C)=O)n1	label 0
COc1ccc2nc(NC(=O)COc3cc(/C=C\c4cc(OC)c(OC)c(OC)c4)ccc3OC)sc2c1	label 1
Cn1cc(-c2csc(-c3cn(CCN4CCOCC4)c4ccc(F)cc34)n2)c2cccnc21	label 0
O=C(CCCCCCC(=O)Nc1ccc(N(CCCl)CCCl)cc1)NO	label 1

---

Each entry below lists one item and its recorded growth value.
# System: SNB-19 CNS
# ASSAY EXPLANATION: NCI-60 one-dose screen, 48 h (100 = growth as untreated, 0 = no growth, -100 = all killed)
# RUN PARAMETERS: 10 µM unless noted
The panel holds about 83,000 compounds, 20% with a hit somewhere; the sample as a whole holds those more often.
OUTCOME MEASURE: growth (%)

COMPOUND	TARGET OR SYSTEM	OUTCOME MEASURE	UNIT ABBREV	MEAS VALUE
COC(=O)N[C@H]1CCc2c(Br)c(OC)c(OC)c(OC)c2-c2ccc(SC)c(=O)cc21	SNB-19 CNS	growth	%	28.2
N#C[Se]CCN1C(=O)c2ccccc2C1=O	SNB-19 CNS	growth	%	38
COC(=O)[C@@H](C)C[C@H](Cc1ccccc1)NC(=O)c1csc([C@@H](C[C@H](C(C)C)N(C)C(=O)[C@@H](NC(=O)[C@H]2CCCCN2C)C(C)C)OC(C)=O)n1	SNB-19 CNS	growth	%	65.6
C/C(CC(C)(C)N1CC1)=N\NC(=O)Nc1cccc2ccccc12	SNB-19 CNS	growth	%	63.5
O=P1(NCCCl)OCCCN1CCCl (stereo not given)	SNB-19 CNS	growth	%	111

---

# Test system: MDA-MB-435 melanoma
# ASSAY EXPLANATION: NCI-60 one-dose screen, 48 h (100 = growth as untreated, 0 = no growth, -100 = all killed)
# RUN PARAMETERS: 10 µM unless noted
# Experimental: Growth inhibition of the MDA-MB-435 human Melanoma tumor cell line is measured as a screen for anti-cancer activity. Cells are grown in 96 well plates and exposed to the test compound for 48 hours. Compounds are tested at a single concentration, which is 10^-5 M for most compounds. The reported endpoint is percent growth (GI% or GIPRCNT), where numbers from 0 - 100% represent growth inhibition, and numbers from -100% - 0 represent cell death. […]
The panel holds about 83,000 compounds, 20% with a hit somewhere; the sample as a whole holds those more often. Calls of active or inactive are those of the source. Rule for the calls: active = growth percent below 10; inactive = the rest.
OUTCOME MEASURE: growth

COMPOUND	OUTCOME MEASURE	MEAS VALUE
COC1OC(CO)C(O)C(O)[CH]1[Hg][O]C(C)=O (centres undefined)	growth	93.7% (inactive)
COC(=O)[C@H](C[C@H](Cc1ccccc1)NC(=O)c1csc([C@@H](C[C@H](C(C)C)N(C)C(=O)[C@@H](NC(=O)[C@H]2CCCCN2C)C(C)C)OC(C)=O)n1)NC(=O)OCc1ccccc1	growth	-33% [8.5 µM] (active)
OCc1ccc2c(c1)OCO2	growth	102% (inactive)
CCC1CN1CCCCN1CC1CC (centres undefined)	growth	93.7% (inactive)
CC(=O)O[C@H](C[C@H](C(C)C)N(C)C(=O)[C@@H](NC(=O)[C@H]1CCCCN1C)C(C)C)c1nc(C(=O)N[C@@H](Cc2ccccc2)C[C@H](C)C(=O)O)c(C(C)C)s1	growth	-42% (active)
CN(C)CCCOc1ccc2c(c1)c(C(=O)C(=O)NCCO)cn2Cc1ccccc1	growth	103% (inactive)
COc1cc2ncnc(Nc3ccc(F)c(Cl)c3)c2cc1OCC(=O)N1CCN(C)CC1	growth	102% (inactive)
Cc1ccc(S(=O)(=O)C(Cl)(Cl)Cl)cc1	growth	97.1% (inactive)
O=[N+]([O-])CC(c1ccccc1Cl)c1c(-c2ccccc2)[nH]c2ccccc12 (centres undefined)	growth	-9.48% (active)
